Molecular target: Rac GTPase-activating protein 1 (Homo sapiens)
Experiment: blockers of MgcRacGAP-driven Rac1 GTP hydrolysis – biochemical, ADP Hunter fluorescence, primary and confirmatory, confirmation (AID 624330);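 note: fluorescence reports GDP produced by GAP-driven GTP hydrolysis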
Details: MgcRacGAP-stimulated Rac1 GTP hydrolysis, at 30 µM, stronger effect = higher value, GST-tagged Rac1 F28L mutant substrate
The campaign covered roughly 340,000 compounds. About 2,100 (0.62%) were called active. Not all results are given here. Measured potencies and affinities stand elsewhere.
Measurement Label: inhibition

Previously resolved entries follow.
# Compound, inhibition
records = [
    ("COc1cccc(/C=C/C(=O)OCC(=O)NCC2CCCCC2)c1OC", "-1.97% (inactive)"),
    ("COc1cc(/C=C/C(=O)OCC(=O)NCCC2=CCCCC2)cc(OC)c1OC", "-10.3% (inactive)"),
]

Q: Determine its reported inhibition: COc1cc(/C=C/C(=O)OCC(=O)NC2CCCCCCC2)ccc1O
A: 26.5% (inactive)

Q: Determine its reported inhibition: Cc1onc(-c2c(Cl)cccc2Cl)c1C(=O)N(C)Cc1ccccc1
A: 12.4% (inactive)

Q: Determine its reported inhibition: CCOC(=O)C1=C(C)NC(=O)CC1c1cc2c(cc1Br)OCO2 (stereo not given)
A: 14.8% (inactive)

Q: Determine its reported inhibition: CCOC(=O)C1=C(C)N(C)C(=O)NC1c1cc2c(cc1[N+](=O)[O-])OCO2 (stereo not given)
A: 11.2% (inactive)

Q: Determine its reported inhibition: COc1cc(/C=C/C(=O)OCC(=O)NC2CCS(=O)(=O)C2)ccc1OC(F)F (stereo not given)
A: 2.44% (inactive)

Q: Determine its reported inhibition: Cc1cccc(CN2CCN(C(=O)c3cccc4ccccc34)CC2)c1
A: 15.3% (inactive)

Q: Determine its reported inhibition: COc1ccc(CNC(=O)O[C@@H]2C[C@H]3C(=O)N(c4ccccc4)C(=O)[C@H]3[C@@]3(CN(S(=O)(=O)c4ccc(C)cc4)C[C@H]3C)[C@@H]2O)cc1OC
A: 13.3% (inactive)

Q: Determine its reported inhibition: COc1ccc(/C=C/C(=O)OCC(=O)NC2CCS(=O)(=O)C2)cc1 (stereo not given)
A: -1.92% (inactive)

###

Target: Rac GTPase-activating protein 1 (Homo sapiens)
Test: blockers of MgcRacGAP-driven Rac1 GTP hydrolysis – biochemical, ADP Hunter fluorescence, primary and confirmatory, confirmation (AID 624330);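 note: fluorescence reports GDP produced by GAP-driven GTP hydrolysis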
Details: MgcRacGAP-stimulated Rac1 GTP hydrolysis, at 30 µM, stronger effect = higher value, GST-tagged Rac1 F28L mutant substrate
The campaign covered roughly 340,000 compounds. About 2,100 (0.62%) were called active. Not all results are given here. Results with a measured potency or affinity are listed apart.
Recorded measurements of inhibition, one per entry

# Compound, inhibition
records = [
    ("CCOc1ccc(S(=O)(=O)N2CCCC(C(=O)Nc3ccccc3)C2)cc1 (stereo not given)", "4.61% (inactive)"),
    ("COC(=O)C1=C(C)N(Cc2ccc(C)cc2)C(=O)/C1=C\\c1ccc(O)c(OC)c1", "-0.65% (inactive)"),
]

Q: Determine its reported inhibition: Cc1cc(C)cc(NC(=O)C2(c3ccccc3)CC2(Cl)Cl)c1 (stereo not given)
A: 8.14% (inactive)

Q: Determine its reported inhibition: COC(=O)C1=C(C)N(Cc2ccco2)C(=O)/C1=C\c1ccc([N+](=O)[O-])cc1
A: 40.1% (inactive)

Q: Determine its reported inhibition: COC(=O)C1=C(C)N(CCc2ccc(OC)c(OC)c2)C(=O)/C1=C\c1ccc(O)cc1
A: 27.5% (inactive)
